Cited source: patent US20220296595A1

- Test system: phosphorylation of Retinoblastoma Protein (pRb Ser807/811 or Ser780) in T47D cells
- experiment_description: Inhibition of phosphorylation of retinoblastoma protein (pRb) in T47D cell (ELISA)
- Format: cell-based, human
- test_parameters: Homo sapiens, T47D, read-out: Phospho T47D Ser807 IC50, pRb Ser807 phosphorylation, T47D cells
pIC50: −log10 of the molar value.
Listed here are compounds together with their documented pIC50.
quantity: pIC50

compound=CC(C)c1cnn2ccc(-c3ccnc(Nc4ccc(N5CCN(C6CCNCC6)CC5=O)cn4)n3)cc12 obs_value="> 7.00"
compound=COc1nc(-c2nc(Nc3ccc(N4CC5CCC(C4)O5)cn3)ncc2F)cc2c1nc(C)n2C(C)C obs_value="6.30 to 7.00"
compound="CC(C)(C)c1cnn2ccc(-c3ccnc(Nc4ccc(N5CCCC(N)C5=O)cc4)n3)cc12 (stereo not shown)" obs_value="> 7.00"
compound="CC(C)n1cnc2c1CN(c1ccnc(Nc3ccc(N4CCC(N5CC(F)C5)CC4=O)cn3)n1)CC2 (stereo not shown)" obs_value="6.30 to 7.00"
compound=CC(C)c1cnn2ccc(-c3ccnc(Nc4ccc(N5CCCNC5=O)cc4)n3)cc12 obs_value="> 7.00"
compound="CN(C)C1CCN(c2ccc(Nc3nccc(-c4cc(F)c5c(c4)C(C)(C)CO5)n3)nc2)C(=O)C1 (stereo not shown)" obs_value="> 7.00"
compound="CC1CC(=O)N(c2ccc(Nc3ncc(F)c(-c4ccn5ncc(C(C)C)c5c4)n3)nc2)CCN1 (stereo not shown)" obs_value="> 7.00"
compound="COc1nc(-c2ccnc(Nc3ccc(N4CCC(N5CC(F)(F)C5)CC4=O)cn3)n2)cc2c1ncn2C(C)C (stereo not shown)" obs_value="> 7.00"
compound=CC(C)c1cnn2cc(-c3ccnc(Nc4ccc(N5CCNCCC5=O)cn4)n3)ccc12 obs_value="> 7.00"
compound=Cc1nc2c(F)nc(-c3ccnc(Nc4ccc(N5CCNCC5=O)cn4)n3)cc2n1C(C)C obs_value="> 7.00"
compound=CC(C)n1cnc2c(F)nc(-c3ccnc(Nc4ccc(N5CCN(C)CC5)cn4)n3)cc21 obs_value="> 7.00"
compound="CC1(C)COc2c(F)cc(-c3ccnc(Nc4ccc(N5CCNCC5=O)cn4)n3)cc21 [Synthetic Example 59]" obs_value="> 7.00"
compound=CC1(C)COc2c(F)cc(-c3ccnc(Nc4ccc(N5CCCNC5=O)cn4)n3)cc21 obs_value="> 7.00"
compound="COc1nc(-c2ccnc(Nc3ccc(CN4CCC(C#N)C4)cn3)n2)cc2c1ncn2C(C)C (stereo not shown)" obs_value="6.30 to 7.00"
compound="CC(C)n1cnc2c(F)nc(-c3ccnc(Nc4ccc(N5CCC(N(C)C)CC5=O)cc4)n3)cc21 (stereo not shown)" obs_value="> 7.00"
compound="COc1nc(-c2nc(Nc3ccc(N4CCNCC4)cn3)ncc2F)cc2c1nc(C)n2C(C)C [Synthetic Example 106]" obs_value="> 7.00"

###

- Tested on: phosphorylation of Retinoblastoma Protein (pRb Ser807/811 or Ser780) in T47D cells
- experiment_description: Inhibition of phosphorylation of retinoblastoma protein (pRb) in T47D cell (ELISA)
- Format: cell-based, human
- test_parameters: Homo sapiens, T47D, read-out: Phospho T47D Ser807 IC50, pRb Ser807 phosphorylation, T47D cells
quantity: IC50

molecule="CC(C)n1cnc2c(F)nc(-c3ccnc(Nc4ccc(N5CC6CC5CN6)cn4)n3)cc21 (stereo not shown) [compound 272]" obs_value="< 100 nM"
molecule="CC(C)c1cnn2ccc(-c3ccnc(Nc4ccc(N5CCCC(N(C)C)C5=O)cn4)n3)cc12 (stereo not shown) [compound 157]" obs_value="< 100 nM"
molecule="CNC1CCN(c2ccc(Nc3nccc(-c4ccn5ncc(C(C)C)c5c4)n3)nc2)C(=O)C1 (stereo not shown) [Synthetic Example 204]" obs_value="< 100 nM"
molecule="COc1nc(-c2nc(Nc3ccc(N4CCC5(CC4)CC(=O)NC5=O)cn3)ncc2F)cc2c1nc(C)n2C(C)C [compound 79]" obs_value="100 to 500 nM"
molecule="CC(C)c1cnn2ccc(-c3ccnc(Nc4ccc(N5CCN(C6COC6)CC5=O)cn4)n3)cc12 [compound 234]" obs_value="< 100 nM"
molecule="COc1nc(-c2ccnc(Nc3ccc(N4CCOCC4)cn3)n2)cc2c1ncn2C(C)C [compound 66]" obs_value="100 to 500 nM"
molecule="CCN1CCC(Cn2ccc(Nc3ncc(F)c(-c4ccn5ncc(C(C)C)c5c4)n3)cc2=O)CC1 [compound 44]" obs_value="500 to 1000 nM"
molecule="COc1nc(-c2ccnc(Nc3ccc(N4CCOCC4=O)cn3)n2)cc2c1nc(C)n2C(C)C [compound 77]" obs_value="< 100 nM"
molecule="CC(C)c1cnn2ccc(-c3ccnc(Nc4ccc(N5CCC(N)CC5=O)cn4)n3)cc12 (stereo not shown) [compound 203]" obs_value="< 100 nM"
molecule="CC(C)c1cnn2ccc(-c3nc(Nc4ccc(N5CCN(C)CCC5=O)cn4)ncc3F)cc12 [compound 46]" obs_value="< 100 nM"
molecule="COc1nc(-c2nc(Nc3ccc(N4CCNCC4=O)cc3F)ncc2F)cc2c1ncn2C(C)C [compound 111]" obs_value="100 to 500 nM"
molecule="CC(C)c1cnn2ccc(-c3nc(Nc4ccc(N5CCOCC5=O)c(F)c4)ncc3F)cc12 [compound 26]" obs_value="< 100 nM"
molecule="CC(C)c1cnn2ccc(-c3nc(Nc4ccc(N5CCCNCC5=O)cn4)ncc3F)cc12 [compound 33]" obs_value="< 100 nM"
molecule="COc1nc(-c2ccnc(Nc3ccc(N4CCNCC4=O)c(F)c3)n2)cc2c1ncn2C(C)C [compound 116]" obs_value="< 100 nM"
molecule="COc1nc(-c2nc(Nc3ccc(N4CCN(C5COC5)CC4=O)cn3)ncc2F)cc2c1nc(C)n2C(C)C [compound 131]" obs_value="100 to 500 nM"
molecule="CC(C)c1cnn2ccc(-c3ccnc(Nc4ccc(C(=O)N5CCC5)cc4)n3)cc12 [compound 169]" obs_value="< 100 nM"
